Origin of measurements: patent US11981658B2

# study-target: EGFR L858R/C797S (Homo sapiens, UniProt P00533, C797S/L858R)
# Sequence (P00533 25-1210 C797S/L858R): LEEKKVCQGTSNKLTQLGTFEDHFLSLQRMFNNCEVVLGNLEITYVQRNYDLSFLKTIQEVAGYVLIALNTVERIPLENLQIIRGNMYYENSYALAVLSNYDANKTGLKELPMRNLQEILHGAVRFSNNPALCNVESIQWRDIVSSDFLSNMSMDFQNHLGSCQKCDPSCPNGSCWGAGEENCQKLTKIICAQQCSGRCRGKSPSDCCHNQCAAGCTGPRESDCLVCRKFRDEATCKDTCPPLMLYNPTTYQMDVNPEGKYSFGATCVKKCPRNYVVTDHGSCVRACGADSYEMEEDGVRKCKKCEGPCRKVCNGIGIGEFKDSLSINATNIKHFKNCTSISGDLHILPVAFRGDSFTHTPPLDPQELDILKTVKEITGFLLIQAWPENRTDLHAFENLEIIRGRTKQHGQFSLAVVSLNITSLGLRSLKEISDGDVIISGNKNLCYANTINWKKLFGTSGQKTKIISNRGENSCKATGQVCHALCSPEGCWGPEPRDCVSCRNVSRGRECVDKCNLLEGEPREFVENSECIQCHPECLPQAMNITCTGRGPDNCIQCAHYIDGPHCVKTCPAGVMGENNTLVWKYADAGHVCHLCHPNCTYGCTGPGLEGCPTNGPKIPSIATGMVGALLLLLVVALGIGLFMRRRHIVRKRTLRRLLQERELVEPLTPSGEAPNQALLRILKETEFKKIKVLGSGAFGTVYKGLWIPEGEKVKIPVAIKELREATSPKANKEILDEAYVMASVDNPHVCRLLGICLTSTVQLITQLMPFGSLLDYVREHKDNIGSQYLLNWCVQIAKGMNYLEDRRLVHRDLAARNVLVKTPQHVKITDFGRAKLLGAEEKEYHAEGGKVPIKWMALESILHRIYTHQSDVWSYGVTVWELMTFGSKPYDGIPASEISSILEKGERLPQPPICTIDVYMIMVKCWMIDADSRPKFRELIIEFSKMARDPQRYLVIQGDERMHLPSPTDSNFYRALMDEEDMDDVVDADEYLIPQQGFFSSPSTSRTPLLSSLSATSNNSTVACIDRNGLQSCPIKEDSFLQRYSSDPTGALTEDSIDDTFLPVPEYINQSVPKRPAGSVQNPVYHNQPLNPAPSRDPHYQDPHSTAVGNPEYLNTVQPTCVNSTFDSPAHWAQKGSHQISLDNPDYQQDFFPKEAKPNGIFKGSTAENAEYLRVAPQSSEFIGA
# experimental-details: Biochemical EGFR kinase inhibition assay (Lance Ultra TR-FRET), double mutant L858R/C797S
# experimental-context: ATP at Km; read-out: IC50 L858R/C797S (nM), Km ATP
parameter: IC50 (nM)

CN(C)CCCn1cc(C#Cc2cnc(Nc3ccnc(-c4cnn(S(=O)(=O)C5CC5)c4)n3)cc2N2CCC3(CC2)CC(C)(O)C3)cn1; 0.2
CN(C)C(=O)c1cccc(C#Cc2cnc(Nc3ccnc(-c4cnn(S(=O)(=O)C5CC5)c4)n3)cc2N2CCC(C)(CO)CC2)n1; 1.3
O=S(=O)(C1CC1)n1cc(-c2nccc(Nc3cc(N[C@H]4CC[C@@H](CO)CC4)c(C#Cc4cnn(C(F)F)c4)cn3)n2)cn1; 3.7
CN1CCC(C#Cc2cnc(Nc3ccnc(-c4cnn(S(=O)(=O)C5CC5)c4)n3)cc2N2CCC(C)(CO)CC2)C1 (stereo not drawn); 0.4

P: CC1(CO)CCN(c2cc(Nc3ccnc(-c4cnn(S(=O)(=O)C5CC5)c4)n3)ncc2C#CCCN2CCOCC2)CC1
Q: O=S(=O)(C1CC1)n1cc(-c2nccc(Nc3cc(N4CCC(C5(O)CC5)CC4)c(C#Cc4cnn(C(F)(F)F)c4)cn3)n2)cn1
Query :: Sorting ascending by IC50, which comes first: P or Q ? Your answer should be the label attached to the chosen record.
Result :: P
